Origin of values: paper PMC6627331

biological target: S. aureus RNase P (RnpA + rnpB) (Staphylococcus aureus, UniProt P0A0H5); construct: hexahistidine (His6) (N); made in house; host or cells: E. coli BL21 (DE3), plasmid pEXP5-nt; assay: RnpA-dependent RNase P in vitro ptRNA^Tyr processing assay; format: biochemical; details: in vitro ptRNA^Tyr processing; read-out: Processing IC50
# IC50 values compiled below
Numeric only. Scale: µM

[[record]]
compound = "CC(=O)Nc1sc2c(c1C(=O)Nc1ccc(Cl)cc1)CCCCC2 [JR1b]"
observed_result = 115


Please turn your attention to the following entry.
Name the recorded IC50 for O=C(Nc1ccccc1Cl)c1c(NC(=O)C(F)(F)F)sc2c1CCCC2 [JR2b] .
100

---

target: S. aureus RnpA (Staphylococcus aureus, UniProt P0A0H5); construct: hexahistidine (His6) (N); made in house; host or cells: E. coli BL21 (DE3), plasmid pEXP5-nt; assay: RnpA-mediated in vitro spa mRNA degradation assay; type: biochemical; settings: SAR figures, read-out: dIC50 = degradation IC50
Sequence (P0A0H5 whole entry): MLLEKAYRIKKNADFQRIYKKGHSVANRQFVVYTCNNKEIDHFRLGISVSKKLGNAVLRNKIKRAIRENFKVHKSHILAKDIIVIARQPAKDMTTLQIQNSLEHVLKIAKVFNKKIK
assay endpoint: IC50

[[record]]
smiles_entry = "O=C(Nc1ccc(Cl)cc1)N1CCCCCC1"
observed_result = "> 500 µM"


Recorded IC50 for `O=C(Nc1cccc(Cl)c1)N1CCCCCC1` , please?
> 500 µM

Follow-up entry: `Cc1ccc(NC(=O)c2c(NC(=O)C(F)(F)F)sc3c2CCCCC3)cc1`
115 µM

Same question, `O=C(Nc1cccc(Cl)c1)c1c(NC(=O)C(F)(F)F)sc2c1CCCCC2` this time
25 µM

---

test system: S. aureus UAMS-1; assay: Minimum inhibitory concentration (MIC) testing; type: cell-based, Staphylococcus aureus; settings: Staphylococcus aureus, UAMS1, 16 h, S. aureus UAMS-1, 16 h in MHB; read-out: MIC
Consider the following molecules and their measured MIC readings.

Some solved entries appear below for comparison.
[[record]]
molecule = "O=C(Nc1ccc(Cl)cc1)c1c(NC(=O)C(F)(F)F)sc2c1CCCCC2 [JR1]"
observed_result = "0.25 to 1 µg/mL"

[[record]]
molecule = "CC1CCCCN1C(=O)Nc1ccccc1 (centres unmarked) [JC2b]"
observed_result = "> 256 µg/mL"

[[record]]
molecule = "O=C(Nc1ccccc1Cl)c1c(NC(=O)C(F)(F)F)sc2c1CCCCC2 [JR2]"
observed_result = "0.25 to 1 µg/mL"

[[record]]
molecule = "CCC1CCCCN1C(=O)Nc1ccccc1 (centres unmarked) [JC3c]"
observed_result = "> 256 µg/mL"


Next, consider the following molecule.
# MIC lookup, item CC1CCN(C(=O)Nc2cccc(Cl)c2)CC1 [JC1b]
> 256 µg/mL

---

system: S. aureus UAMS-1; assay: Minimum inhibitory concentration (MIC) testing; assay type: cell-based, Staphylococcus aureus; conditions: Staphylococcus aureus, UAMS1, 16 h, S. aureus UAMS-1, 16 h in MHB; read-out: MIC
assay endpoint: MIC (µg/mL)
Numeric only. Scale: µg/mL

MIC lookup needed for Nc1sc2c(c1C(=O)Nc1ccc(Cl)cc1)CCCCC2 [JR1c] , thanks.
64

Same again, this time with O=C(Nc1cc(Cl)cc(Cl)c1)N1CCCCC1 [JC4]
256

---

Documented MIC across a set of compounds
system: S. aureus UAMS-1; assay: Minimum inhibitory concentration (MIC) testing; format: cell-based, Staphylococcus aureus; conditions: Staphylococcus aureus, UAMS1, 16 h, S. aureus UAMS-1, 16 h in MHB; read-out: MIC

See these solved cases before continuing.
[[record]]
compound = "O=C(Nc1cccc(Cl)c1)N1CCCCCC1"
observed_result = "> 256 µg/mL"

[[record]]
compound = "Cc1ccc(NC(=O)N2CCCCC2C)cc1Cl (stereo not drawn)"
observed_result = "> 256 µg/mL"


Lab note: next compound to report on.
Which MIC is listed for CCC1CCCCN1C(=O)Nc1cccc(C)c1 (stereo not drawn) ?
> 256 µg/mL
